- tested-system: CDK2/Cyclin A complex (Homo sapiens)
- assay-comment: CDK2/Cyclin A assay (32P incorporation into Rb fragment)
- Type: biochemical
- run-conditions: apparent Ki; 150 nM CDK2/Cyclin A complex, 25 μM ATP
property: Ki (nM)
Record the value in nM, omitting the unit from your answer.

Please look up its Ki: ON=C1c2ccccc2-c2cc3[nH]nnc3cc21 (mixture of isomers)
680

----------
Quick record: Ki, CHK-1 KH289 (Homo sapiens).
Answer with the figure and its unit, nothing else.

Item: Nc1cc2c(cc1N)-c1ccccc1C2=NO [Comparison Ex. 2(b), reference compound] Test system: CHK-1 KH289 (Homo sapiens) Read-out: Ki Value: ?
8.1 µM

Item: ON=C1c2cc(I)ccc2-c2cc3[nH]nnc3cc21 (mixture of isomers) [Example D] Test system: CHK-1 KH289 (Homo sapiens) Read-out: Ki Value: ?
0.166 µM

Item: O/N=C1/c2ccccc2-c2nc3nonc3nc21 [Comparison Ex. 1, reference compound] Test system: CHK-1 KH289 (Homo sapiens) Read-out: Ki Value: ?
26.6 µM
